// provenance: PubChem BioAssay (NCI)

test: NCI Yeast Anticancer Drug Screen. Data for the mgt1 strain (AID 153); details: S. cerevisiae mgt1 mutant growth inhibition; at 3.7 µM
This is part of a sample that, as a whole, favours compounds with a hit. Of some 79,000 tested, about 15% had one in any assay. Active and inactive are the calls of the source. Cut-off read from the data, not from the text of the source: active = growth inhibition above about 70%; inactive = the rest.
Possible outcomes: label 1 for active, label 0 for inactive

>>> assigned_class("CC(C)/C(Cl)=N\\OC(=O)Nc1ccccc1F")
"label 0"
>>> assigned_class("c1ccc2c(c1)c1ncccc1c1nccnc21")
"label 0"
>>> assigned_class("CCOP(=O)(OCC)C(Cc1ccccc1)N=C(c1ccccc1)c1ccccc1 (configuration not stated)")
"label 0"
>>> assigned_class("COP(=O)(OC)/C(=C\\C1=CN(C(c2ccccc2)(c2ccccc2)c2ccccc2)CN1)NC=O")
"label 0"
>>> assigned_class("CCOC(=O)c1cnc2c(C(F)(F)F)cccc2c1N=[N+]=[N-]")
"label 0"
>>> assigned_class("CN1c2ccc(Cl)cc2C(=O)NC1c1ccc([N+](=O)[O-])s1 (configuration not stated)")
"label 0"
>>> assigned_class("CCN(CC)C(=S)N/N=C(/C)c1cccc(/C(C)=N\\NC(=S)N(CC)CC)n1")
"label 0"
>>> assigned_class("CC(=O)Nc1ccc(/C=C(\\C#N)c2ccc(C)cc2)cc1")
"label 0"
>>> assigned_class("CC(C(=O)N1C(=O)N(C(=O)[C@H](C)C(O)c2ccccc2)[C@H](c2ccccc2)[C@H]1c1ccccc1)[C@@H](O)c1ccccc1 (some centres not stated)")
"label 0"
>>> assigned_class("COC(=O)c1ccc(NCC2=CC(=O)C=CC2=O)cc1O")
"label 0"
>>> assigned_class("CC(=O)SCCC[Si](C)(C)CCCSC(C)=O")
"label 0"
>>> assigned_class("CCCCCCCCCCCCCCCCCCOCC(O)COP(=O)(O)OCC1OC(n2cc(F)c(=O)[nH]c2=O)CC1O (configuration not stated)")
"label 0"
>>> assigned_class("CCCCCCCCCCC(=O)Cl")
"label 0"
>>> assigned_class("CCOC(=O)[C@H]1Nc2ccccc2C2c3ccccc3CC21 (some centres not stated)")
"label 0"
>>> assigned_class("O=C(c1ccc(Cl)cc1)C1OC12C(=O)Nc1ccccc12 (configuration not stated)")
"label 1"
>>> assigned_class("O=[N+]([O-])c1cc2no[n+]([O-])c2cc1N1CCCCC1")
"label 0"
>>> assigned_class("C(CCSC1=NCCN1)CSC1=NCCN1 (tested in a mixture with another compound)")
"label 0"
>>> assigned_class("CC(=O)Nc1ccc2c(c1)C(=Nc1ccc(C(=O)O)cc1)c1ccccc1-2")
"label 0"
>>> assigned_class("CCCCOC(=O)N[C@H]1CCc2cc(OC)c(OC)c(OC)c2-c2ccc(SC)c(=O)cc21")
"label 0"
>>> assigned_class("CCS(=O)(=O)c1ccc(/C=C/C=N/NC(=S)NCC(C)C)cc1")
"label 0"
>>> assigned_class("CCC/C(Cl)=N\\OC(=O)Nc1cccc(C(F)(F)F)c1")
"label 0"
>>> assigned_class("Cn1c2ccccc2c(=O)c2cc(NC(=O)CCCCC(=O)Nc3ccc4c(c3)c(=O)c3ccccc3n4C)ccc21")
"label 0"
>>> assigned_class("Nc1ccn(C2OC(CO)C3[O][Sn]([c]4ccccc4)([c]4ccccc4)[O]C32)c(=O)n1 (configuration not stated)")
"label 0"
>>> assigned_class("Nc1ncncc1C(C1=C(O)COC1=O)C1=C(O)COC1=O")
"label 0"
>>> assigned_class("Cc1cc(I)ccc1N")
"label 0"
>>> assigned_class("O=C1C2CC[C@@H]3C(=O)C(Cl)(Cl)[C@@H]3CCC2C1(Cl)Cl (some centres not stated)")
"label 0"
>>> assigned_class("Cn1ccnc1Oc1ccc(Cl)cc1")
"label 0"
>>> assigned_class("O=C(O)c1ccccc1-c1ccccc1C(=O)Nc1ccc2c(c1)Cc1ccccc1-2")
"label 0"
>>> assigned_class("C[S+](C)C1(c2ccccc2)C(=O)c2ccccc2C1=O")
"label 0"
>>> assigned_class("CC(/C=C/c1ccc(Cl)cc1)=N\\NC(=S)NCC(C)C")
"label 0"
>>> assigned_class("CCCCc1cc(O)ccc1O")
"label 0"
>>> assigned_class("O=C1c2ccccc2C(=O)c2cc(CBr)ccc21")
"label 0"
